assay: Stability in human liver microsomes assessed as remaining compound measured after 10 mins by LC-MS/MS analysis; assay type: ADME, Microsome; settings: read-out: Stabilty
MEASURED PROPERTY: remaining at 10 min (%)
Answers are plain numbers, in %.

State, in one line, measured remaining at 10 min of CNc1nc(Nc2ccc(-n3cnc(Cl)c3)c(OC)c2)nc2c1CC[C@H]2c1ccccc1
96

---

test: Oral bioavailability in cynomolgus monkey incubated for 24 hrs by LC-MS/MS analysis; format: ADME, organism-based, Macaca fascicularis; conditions: in vivo
MEASURED PROPERTY: bioavailability (%)
Numbers only, in %.

State, in one line, measured bioavailability of CNc1nc(Nc2ccc(-n3cnc(Cl)c3)c(OC)c2)nc2c1CC[C@H]2c1ccccc1
44
